Consider the following molecules; for each one, report its TGI.
- System: HCT-116 colon
- PROTOCOL_NOTES: NCI tumour cell line growth inhibition, 48 h

Below are worked cases with known answers.
CCCCCCCCCCCCCCCCCC(=O)OCC(CN(C)CCN(C)C)OC(=O)CCCCCCCCCCCCCCCCC (stereo not given) = > 100 µM
Cc1cc2nc3c(N)nn(CCN(C)C)c3nc2cc1C = > 100 µM
OC1(C(O)(c2ccc(-c3ccccc3)cc2)c2ccc(-c3ccccc3)cc2)CCCCC1 = > 100 µM
CCCCCCCCCCC/C(=N/O)c1ccc(O)c2ncccc12 = 59.9 µM
Cc1ccc(Cl)c2c(=O)cc(-c3ccccc3)[nH]c12 = > 100 µM

Batch request: TGI for each of the following molecules.
1. Cn1c(O)c(/C=N/c2ncccn2)c(=O)[nH]c1=O
2. Cc1ccc(C(=O)Nc2ccc(CN3CCN(C)CC3)c(C(F)(F)F)c2)cc1C#Cc1cnc(N)cc1C#N
3. CC1=C(/C=C/C(C)=C\C=C\C(C)=C\C(=O)Nc2ccc3c(c2)OCO3)C(C)(C)CCC1
4. COc1ccc2c3c([nH]c2c1)-c1nc2ccccc2c(=O)n1CC3
5. Cc1cn(C2CC(SCCO)C(CO)O2)c(=O)[nH]c1=O (stereo not given)

1. > 100 µM
2. 0.642 µM
3. > 100 µM
4. > 25 µM
5. > 100 µM

###

- Tested on: NCI-H522 lung
- PROTOCOL_NOTES: NCI tumour cell line growth inhibition, 48 h
METRIC: TGI (µM)
Numbers only, in µM.

Some entries whose results are on file:
c1cc2c3c(c1)[C@@H]1O[C@@H]1c1cccc(c1-3)[C@@H]1O[C@H]21 = 30.1
Cc1ccc(C(=O)Nc2ccc(CN3CCN(C)CC3)c(C(F)(F)F)c2)cc1C#Cc1cnc(N)cc1C#N = 0.925
COc1ccc(-n2c(SCc3cc(OC)c(OC)c(OC)c3)nc3ccc(C)cc3c2=O)c(OC)c1 = 72.7
COc1ccc(/C=N/N=C(\N)NO)cc1OC = 79.9
C#Cc1cccc(Nc2ncnc3cc(OCCOC)c(OCCOC)cc23)c1 = 27.1
COc1c(-c2ccc(F)cc2)oc2cc(O)cc(O)c2c1=O = 44.2
O=[N+]([O-])c1cccc([N+](=O)[O-])c1Cl = 29.5
COc1ccc2[nH]c(-c3ccccn3)cc(=O)c2c1 = 65.8

Fill in TGI for each of the 3 compounds listed.
1. COC(=O)c1c(C)cccc1C1CN=NC12Cc1cccc(C)c1C2=O (stereo not given)
2. CCN(CC)c1ccc(/C=C\c2cc(C)c3cc(C)ccc3n2)cc1
3. C=C(C)[C@@H]1CC[C@]2(C(=O)OC3OC(COC4OC(CO)C(OC5OC(C)C(O)C(O)C5O)C(O)C4O)C(O)C(O)C3O)CC[C@]3(C)[C@H](CC[C@@H]4[C@@]5(C)CC[C@H](O)[C@@](C)(CO)[C@@H]5CC[C@]43C)[C@@H]12 (stereo not given in full)

1. 75.7
2. 5.19
3. 9.56

###

- System: HS 578T breast
- PROTOCOL_NOTES: NCI tumour cell line growth inhibition, 48 h
METRIC: TGI

C=C1CC(Cn2cc(Br)c(=O)[nH]c2=O)(c2ccc(Br)cc2)OC1=O (configuration not stated) = > 32.4 µM

Answer for every listed entry: what is its TGI? The entries follow.
1. C/C=C\C(CC(=O)NCCc1c[nH]c2ccccc12)CC(=O)OC (configuration not stated)
2. CN1CCCC(OC(=O)c2cc3cc(CCl)ccc3oc2=O)C1 (configuration not stated)
3. O=C1/C(=C/c2cccs2)N=C(c2ccccc2)N1c1nc2ccccc2s1
4. COC(CC1(CCNc2ccccc2)C(=O)N(COCC[Si](C)(C)C)c2ccccc21)OC (configuration not stated)
5. COc1ccc(C(=O)/C=C/c2ccc(OCCCOc3ccc(/C=C/C(=O)c4ccc(OC)c(OC)c4)cc3)cc2)cc1OC
6. COP(=O)(OC)C(NC(c1ccccc1)c1ccccc1)c1ccc2c(c1)OCO2 (configuration not stated)
7. COc1ccc(C[C@H]2COC(=O)[C@@H]2Cc2ccccc2)cc1OC

> 100 µM
56.6 µM
38.9 µM
41.4 µM
> 100 µM
59.9 µM
> 100 µM

Respectfully, I request TGI for each entry included below.
1. Cc1ccc(C(=O)NN=C(/N=N/c2cccc(C)c2)c2ccc(N(C)C)cc2)cc1
2. O=C(O)c1cc2ccccc2c(O)c1O
3. C/C(=N/S(=O)(=O)c1ccc(Cl)c(Cl)c1)OCC(C)(C)C
4. Cc1c(Cl)c(=O)oc2cc(OCC(O)COC(C)C)ccc12 (configuration not stated)
5. Cc1c(N=Nc2ccc([N+](=O)[O-])cc2)nc2scc(-c3ccccc3)n12

> 100 µM
45.4 µM
> 100 µM
> 100 µM
> 100 µM

Hi, could you look up TGI for each item in my list?
1. OC1(C(O)(c2ccc(-c3ccccc3)cc2)c2ccc(-c3ccccc3)cc2)CCCCC1
2. CCOC(=O)c1nc2ccccc2nc1Nc1ccc(F)cc1
3. Clc1ccc(Cc2nc3ccccc3nc2-c2cccc(Cl)c2)cc1
4. O=C1CCc2cc3c(cc21)C(C(=O)O)CC3 (configuration not stated)

> 100 µM
> 84.8 µM
12.4 µM
> 100 µM

Please look at the items below and tell me TGI for each one, in order.
1. c1ccc2c(c1)ccc1nc(-c3ccc4c(c3)OCO4)c3c(c12)CCC3
2. CCOC(=O)COC1=Nc2cc(OC)c(OC)c3nc(Cl)cc(c23)C1=O
3. CCCCN(CCCC)C1=Nc2ccccc2-n2c(nnc2C(=O)OCC)C1
4. CSc1nc2c(c(=O)[nH]1)N=C1c3ccccc3C(=O)C1C(c1ccc(F)cc1)N2 (configuration not stated)
5. Oc1ccc(Cc2ccc(O)c3ncccc23)c2cccnc12

["> 100 µM", "> 20.6 µM", "> 100 µM", "43.6 µM", "> 100 µM"]

###

So I've got a bunch of compounds here, and I need their TGI values.
- System: MDA-MB-435
- PROTOCOL_NOTES: NCI tumour cell line growth inhibition, 48 h
Numbers only, in µM.

Take a look at these entries with their results.
O=C(O)c1cc2ccccc2c(O)c1O = 3.33
COc1ccccc1-[n+]1cc(-c2ccc(-c3ccccc3)cc2)n2c1CCCCC2 = 3.6
Oc1ccc(O)c(Sc2nnc(CCCCCCCCc3nnc(Sc4cc(O)ccc4O)o3)o2)c1 = 35.8

// below: TGI requested for another compound
For the compound shown here, N#C[C@H]1C(=O)C(c2nc3ccccc3[nH]2)S[C@H]1c1ccccc1 (stereo not given in full) , give the reported TGI.
87.8

###

- System: 786-0 renal
- PROTOCOL_NOTES: NCI tumour cell line growth inhibition, 48 h
Hi there, I'd appreciate the recorded TGI for every entry that follows.
One number for each entry, in µM.

Consider the reported TGI for these molecules:
O=C(O)c1cc2ccccc2c(O)c1O = 27.6
O=c1[nH]nc(N/N=C\c2ccc(Cl)cc2)c2ccccc12 = 30.6
COCCN(C(=O)c1ccccc1)C1CCC(=O)c2[nH]c3ccccc3c21 (centres undefined) = 11.9

Could you now look at the following molecule, please?
Which TGI reading was recorded for the molecule `OCc1cn(Cc2cccc(Cl)c2)c2ccccc12` ?
28.1

###

- System: SK-OV-3 ovarian
- PROTOCOL_NOTES: NCI tumour cell line growth inhibition, 48 h
METRIC: GI50

CCN(CC)c1ccc(/C=C\c2cc(C)c3cc(C)ccc3n2)cc1 = 4.63 µM

// input: 3 compounds below; output: GI50 for each
1. Cc1ccc(C(=O)Nc2ccc(CN3CCN(C)CC3)c(C(F)(F)F)c2)cc1C#Cc1cnc(N)cc1C#N
2. Nc1ccccc1C#C/C=C\C#Cc1ccccc1C(F)(F)F
3. O=C(/C=C/c1cccnc1)NCCCCC1CCN(C(=O)c2ccccc2)CC1

1: 0.186 µM; 2: 0.888 µM; 3: > 100 µM

###

Could you please report measured TGI for the items listed next?
- Test system: UACC-62 melanoma
- PROTOCOL_NOTES: NCI tumour cell line growth inhibition, 48 h
One number for each entry, in µM.

Worked examples, 5 compounds total:
O=c1[nH]nc(N/N=C\c2ccc(Cl)cc2)c2ccccc12 = 39.4
CC[C@]1(O)CC2CN(CCc3c([nH]c4ccccc34)[C@@](C(=O)OC)(c3cc4c(cc3OC)N(C)[C@H]3[C@@](O)(C(=O)OC)[C@H](OC(C)=O)[C@]5(CC)C=CCN6CC[C@]43[C@@H]65)C2)C1 (stereo not given in full) = 8.91
C(=N\Nc1ccccn1)/c1ccccn1 = 2.28
CC(C)Oc1cc2c(cc1O)CC[C@@H]1[C@@H]2CC[C@]2(C)[C@@H](O)CC[C@@H]12 = 13.2
CC(=O)NC1C(OCc2ccccc2)OC(CO)C(O)C1OCC(=O)N[C@@H](C)C(=O)N[C@H](CCC(=O)NCCCCNc1c2ccccc2nc2cccc([N+](=O)[O-])c12)C(N)=O (stereo not given in full) = 3.13

// for each compound below, give its TGI
1. CCOC(=O)c1c(SCCN2CCCCC2)n(-c2ccccc2)c(=S)n(-c2ccccc2)c1=O
2. O=C1c2c(O)cccc2Cc2cccc(O)c21
3. COC(=O)c1c(C)cccc1C1CN=NC12Cc1cccc(C)c1C2=O (stereo not given)
4. CN1CCCC(OC(=O)c2cc3cc(CCl)ccc3oc2=O)C1 (stereo not given)

1: 68.9; 2: 3.07; 3: 74; 4: 31.6
